Field: growth inhibition. Provide a value for each of the compounds that follow.
# Test Method Notes: NCI Yeast Anticancer Drug Screen. Data for the bub3 strain (AID 167)
# Settings: S. cerevisiae bub3 mutant strain, stronger effect = higher value; at 50.0 µM unless noted
This is part of a sample that, as a whole, favours compounds with a hit. Of some 79,000 tested, about 15% had one in any assay.
Quick note: give the figure in %, leave out the unit.

Incoming: Which measured growth inhibition value corresponds to `O=C(Nc1nncs1)c1cnccn1` ?
Outgoing: 11.3

Incoming: Which measured growth inhibition value corresponds to CCOC(C)C(Nc1ccc(C(=O)O)cc1)C(=O)Nc1ccc(C(=O)O)cc1 (centres undefined) ?
Outgoing: -5.6

Incoming: Which measured growth inhibition value corresponds to `CC(=O)Oc1cccc2c1C(=O)c1c(OC(C)=O)cc(C)cc1C2=O` ?
Outgoing: -41

Incoming: Which measured growth inhibition value corresponds to CCOC(=O)C(C#N)(CC(=O)OC)C(c1cccc2ccccc12)c1cccc2ccccc12 (centres undefined) ?
Outgoing: -7.15

Incoming: Which measured growth inhibition value corresponds to `Cc1ccc(C2=CC=C(c3ccccc3)C2)cc1` ?
Outgoing: 4.4

Incoming: Which measured growth inhibition value corresponds to `CC(C)(C)OC(=O)COc1ccc(NC(=O)COc2ccc(Cl)c(Cl)c2)cc1` ?
Outgoing: -1.8

Incoming: Which measured growth inhibition value corresponds to `NC(=O)C(=Cn1c(=S)[nH]c2ccc([N+](=O)[O-])cc21)C(N)=O` ?
Outgoing: -22.6

Incoming: Which measured growth inhibition value corresponds to `COc1ccc(N=Nc2nc(N)c(C(N)=O)[nH]2)cc1` ?
Outgoing: 5.7

Incoming: Which measured growth inhibition value corresponds to `CCNC(=O)c1ccc(C(C)C)cc1` ?
Outgoing: 2.15

Incoming: Which measured growth inhibition value corresponds to `CCOC(=O)/C(C#N)=C/c1cccc([N+](=O)[O-])c1` ?
Outgoing: 34.1

Incoming: Which measured growth inhibition value corresponds to `O=CNC1c2ccccc2CCc2ccccc21` ?
Outgoing: -22.6

Incoming: Which measured growth inhibition value corresponds to COCCC(=O)OCCC(C)OC (centres undefined) ?
Outgoing: -42.2

Incoming: Which measured growth inhibition value corresponds to `COc1ccc(/C=N/N=C(/C(=O)c2ccc(OC)cc2)c2ccc(OC)cc2)cc1` ?
Outgoing: 2.2

Incoming: Which measured growth inhibition value corresponds to `Cc1ccc(C)c(NC(=O)c2cccc(C(=O)Nc3cc(C)ccc3C)c2)c1` ?
Outgoing: 7.95

Incoming: Which measured growth inhibition value corresponds to [N-]=[N+]=NC1(N=[N+]=[N-])C(=O)Nc2ccccc2C1=O (centres undefined) ?
Outgoing: -10.2

Incoming: Which measured growth inhibition value corresponds to OCCCC(O)CCC(O)CCC(O)CCCO (centres undefined) ?
Outgoing: -22.8

Incoming: Which measured growth inhibition value corresponds to `Cn1cc(Cc2ccccc2)c(=O)[nH]c1=O` ?
Outgoing: -4.85

Incoming: Which measured growth inhibition value corresponds to `Cc1ccc(S(=O)(=O)OCCOCCOS(=O)(=O)c2ccc(C)cc2)cc1` ?
Outgoing: 18.9

Incoming: Which measured growth inhibition value corresponds to `O=C1OC(c2ccccc2)=N/C1=C/C=C/c1ccco1` ?
Outgoing: -1.6

Incoming: Which measured growth inhibition value corresponds to `Cc1ccc(SCC(O)=C2C(=O)CCCC2=O)cc1` ?
Outgoing: -2.25

Incoming: Which measured growth inhibition value corresponds to CNCCc1cn(C2OC(CO)C(O)C(O)C2O)cn1 (centres undefined) ?
Outgoing: -28.4

Incoming: Which measured growth inhibition value corresponds to `CCCCC1=C(c2ccccc2)/C(=N/Nc2ccc([N+](=O)[O-])cc2[N+](=O)[O-])c2ccccc21` ?
Outgoing: 1.2

Incoming: Which measured growth inhibition value corresponds to C=CCC(O)c1ccccc1OC (centres undefined) ?
Outgoing: -5.9

Incoming: Which measured growth inhibition value corresponds to `C=C1C(=O)O[C@@H]2C[C@@]3(C)[C@H](O)CCC(=C)[C@@H]3C[C@H]12` ?
Outgoing: 19.6

Origin of values: PubChem BioAssay (NCI)
